target: Botulinum neurotoxin type A (Clostridium botulinum) (UniProt P0DPI0); assay: BoNT/A light chain protease inhibitors, biochemical, multiplex microsphere flow cytometry, validation set (AID 588460); conditions: at 10 µM, stronger effect = higher value
Sequence (P0DPI0 whole entry, looked up): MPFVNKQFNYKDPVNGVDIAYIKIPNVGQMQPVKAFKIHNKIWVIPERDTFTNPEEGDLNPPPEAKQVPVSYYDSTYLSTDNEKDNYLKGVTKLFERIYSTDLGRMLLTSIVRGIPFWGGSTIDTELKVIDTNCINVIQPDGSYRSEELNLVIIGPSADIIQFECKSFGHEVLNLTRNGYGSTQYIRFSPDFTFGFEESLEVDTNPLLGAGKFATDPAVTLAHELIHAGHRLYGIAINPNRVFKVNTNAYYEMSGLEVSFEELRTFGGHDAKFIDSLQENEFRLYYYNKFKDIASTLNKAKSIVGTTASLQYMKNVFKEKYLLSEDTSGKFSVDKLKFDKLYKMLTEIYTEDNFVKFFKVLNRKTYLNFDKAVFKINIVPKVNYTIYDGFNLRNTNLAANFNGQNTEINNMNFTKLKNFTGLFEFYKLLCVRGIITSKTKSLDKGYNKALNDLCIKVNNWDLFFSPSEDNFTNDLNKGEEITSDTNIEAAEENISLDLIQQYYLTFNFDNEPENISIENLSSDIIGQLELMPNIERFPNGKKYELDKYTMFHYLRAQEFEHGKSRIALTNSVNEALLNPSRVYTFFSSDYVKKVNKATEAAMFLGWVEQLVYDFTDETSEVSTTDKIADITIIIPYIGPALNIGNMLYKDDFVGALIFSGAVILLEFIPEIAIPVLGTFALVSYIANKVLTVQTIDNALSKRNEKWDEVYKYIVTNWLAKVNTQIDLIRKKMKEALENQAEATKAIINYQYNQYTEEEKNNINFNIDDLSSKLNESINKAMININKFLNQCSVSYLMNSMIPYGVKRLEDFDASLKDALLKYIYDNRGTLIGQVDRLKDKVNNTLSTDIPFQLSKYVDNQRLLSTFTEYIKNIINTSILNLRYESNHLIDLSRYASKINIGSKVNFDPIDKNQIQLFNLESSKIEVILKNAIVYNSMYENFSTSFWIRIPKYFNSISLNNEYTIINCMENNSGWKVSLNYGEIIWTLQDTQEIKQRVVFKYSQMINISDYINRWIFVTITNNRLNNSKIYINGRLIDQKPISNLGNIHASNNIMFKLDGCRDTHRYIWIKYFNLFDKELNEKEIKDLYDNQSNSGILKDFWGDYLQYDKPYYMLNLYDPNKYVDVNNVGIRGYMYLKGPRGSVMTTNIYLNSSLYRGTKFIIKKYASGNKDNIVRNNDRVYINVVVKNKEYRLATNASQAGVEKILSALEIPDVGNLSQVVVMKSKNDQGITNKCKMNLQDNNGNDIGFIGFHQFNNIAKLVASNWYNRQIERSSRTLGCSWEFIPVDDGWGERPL
RECORDED_ENDPOINT: inhibition (%)
The reply should contain only the number, in %.

inhibition reported for this molecule COc1c(C=O)c(CCN(C)C(=O)c2ccc(F)cc2)cc2c1OCO2 : -1.5

inhibition reported for this molecule CC(=O)O[C@]1(C(C)=O)CC[C@H]2[C@@H]3C[C@H](C)C4=CC(=O)CC[C@]4(C)[C@H]3CC[C@@]21C : -1.6

inhibition reported for this molecule O=C1c2ccccc2C(=O)N1/N=C/c1ccc(Oc2ccc([N+](=O)[O-])cn2)cc1 : 0.8

Further cases:
inhibition reported for this molecule Cn1cc(CN2CCC(C(=O)N3CCCCC3)CC2)c(-c2ccccc2F)n1 : 0.2

inhibition reported for this molecule O=C(NCCN1CCCCC1)c1c(O)c2ccccc2[nH]c1=O : 0.4

inhibition reported for this molecule CC(=O)CCc1c(C)c2cccc(C)c2[nH]c1=O : 0.8

inhibition reported for this molecule O=C1C=Cc2ccccc2C1=O : 1.7

inhibition reported for this molecule COc1ccc(C(=O)COc2ccc(F)cc2)c(O)c1 : -1.3

inhibition reported for this molecule CCN(CC)C(=S)SSC(=S)N(CC)CC : -3.2

###

target: Botulinum neurotoxin type A (Clostridium botulinum); assay: BoNT/A light chain protease inhibitors, biochemical, multiplex microsphere flow cytometry, validation set (AID 588460); conditions: at 10 µM, stronger effect = higher value
Where a SMILES comes first, the peptide text is derived from it.
RECORDED_ENDPOINT: inhibition (%)
The reply should contain only the number, in %.

Example entries and their recorded answers appear below.
inhibition reported for this compound CC(=O)NC(CC(C)C)C(=O)NC(Cc1ccccc1)C(N)=O (stereo not drawn) (Ac-Leu-Phe-NH2; configuration not given here) : 0.2

inhibition reported for this compound CCN(CC)CCOC(=O)C1(C2CCCCC2)CCCCC1 : 1

inhibition reported for this compound C/C(=N/N1CCN(Cc2cccc3ccccc23)CC1)c1cccnc1 : -0.9

inhibition reported for this compound CC[C@]1(O)C[C@@H]2CN(CCc3c([nH]c4ccccc34)[C@@](C(=O)OC)(c3cc4c(cc3OC)N(C)[C@H]3[C@@](O)(C(=O)OC)[C@H](OC(C)=O)[C@]5(CC)C=CCN6CC[C@]43[C@@H]65)C2)C1 : 3.4

Further cases:
inhibition reported for this compound CCOC(=O)[C@H]1O[C@@H]1C(=O)N[C@@H](CC(C)C)C(=O)NCCC(C)C : -1.4

inhibition reported for this compound CCc1cccc(OC2OC(CO)C(O)C(O)C2NC(C)=O)c1 (configuration not stated) : -0.7

inhibition reported for this compound O=c1ccc2c(o1)/C(=C/C=C(Cl)Cl)CCC2 : -0.6

inhibition reported for this compound Cc1ccc2c(c1)C1OCCC1C1N2C(=O)C2C(C(=O)O)C3C=CC21O3 (configuration not stated) : -0.8

inhibition reported for this compound CCOC(=O)c1cccc(P(C)(C)=O)c1 : -0.5

inhibition reported for this compound Cn1c2ccc(CC(=O)O)cc2c2cc(CC(=O)O)ccc21 : -0.6

inhibition reported for this compound O=C(Nc1ccccc1)OCC1CCCN2CCCCC12 (configuration not stated) : 0.3

inhibition reported for this compound COc1ccc(/C=C/C(=O)c2cc3cccc(OC)c3oc2=O)cc1 : 2.8

###

experiment: promoters of myeloid differentiation in arrested cells, primary screen, cell-based, GFP/MAC1 double positive, flow cytometry, validation set (AID 588685); conditions: ER-HoxA9 marrow cells, stronger effect = higher value;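 also: compound exposure lasts four days before antibody staining and flow analysis; 0% = DMSO wells and 100% = 5 µM fulvestrant positive control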
RECORDED_ENDPOINT: differentiation response (%)
The reply should contain only the number, in %.

Example entries and their recorded answers appear below.
differentiation response reported for this compound O=C1CSC2N1CCNC21CCCCC1 (stereo not given) : 28.6

differentiation response reported for this compound O=C1NCCN2CCCC12 (stereo not given) : -11.9

differentiation response reported for this compound C[C@]12CCC(=O)C=C1CC[C@@H]1[C@@H]2CC[C@]2(C)C(=O)CC[C@@H]12 : 11

# context switch: different compound, same differentiation response
differentiation response reported for this compound O=Cc1cn(Cc2ccc(F)cc2)c2ccccc12 : 93.6

###

target: Lethal factor (Bacillus anthracis) (UniProt P15917); assay: Lethal factor protease inhibitors, Bacillus anthracis, multiplex microsphere cleavage assay, validation set (AID 588461); settings: flow cytometry, at 10 µM, stronger effect = higher value
Sequence (P15917 whole entry, looked up): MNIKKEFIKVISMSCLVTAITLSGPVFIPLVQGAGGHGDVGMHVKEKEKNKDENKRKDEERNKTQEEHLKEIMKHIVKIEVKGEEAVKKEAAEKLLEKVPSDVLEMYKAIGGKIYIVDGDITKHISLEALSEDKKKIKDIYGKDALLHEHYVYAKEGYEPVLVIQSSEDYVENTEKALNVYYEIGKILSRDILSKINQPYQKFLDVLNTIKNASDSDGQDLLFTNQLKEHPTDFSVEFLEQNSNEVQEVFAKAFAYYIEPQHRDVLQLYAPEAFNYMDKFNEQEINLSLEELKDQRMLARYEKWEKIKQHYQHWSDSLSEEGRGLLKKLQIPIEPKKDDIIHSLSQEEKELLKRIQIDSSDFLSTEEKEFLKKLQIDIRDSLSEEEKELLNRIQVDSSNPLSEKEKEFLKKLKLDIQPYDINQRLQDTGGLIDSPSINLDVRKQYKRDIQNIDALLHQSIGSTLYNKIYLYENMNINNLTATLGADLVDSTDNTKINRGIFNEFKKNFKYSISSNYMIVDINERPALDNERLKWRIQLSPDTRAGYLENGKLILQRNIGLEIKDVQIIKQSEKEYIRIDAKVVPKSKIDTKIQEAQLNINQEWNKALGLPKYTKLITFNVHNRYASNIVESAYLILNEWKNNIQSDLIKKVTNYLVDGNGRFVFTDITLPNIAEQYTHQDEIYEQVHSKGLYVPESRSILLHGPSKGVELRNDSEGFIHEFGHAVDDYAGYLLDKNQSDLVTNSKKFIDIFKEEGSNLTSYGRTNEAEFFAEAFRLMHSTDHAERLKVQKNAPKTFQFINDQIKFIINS
RECORDED_ENDPOINT: inhibition (%)
The reply should contain only the number, in %.

COc1cc(-c2nnc(-c3cccs3)o2)cc(OC)c1OC on Lethal factor (Bacillus anthracis) (UniProt P15917) gives inhibition = 4.3

CN1CCC(OC(c2ccccc2)c2ccccc2)CC1 on Lethal factor (Bacillus anthracis) (UniProt P15917) gives inhibition = -5.1

C[N+](C)(C)CCCCCCCCCC[N+](C)(C)C on Lethal factor (Bacillus anthracis) (UniProt P15917) gives inhibition = -5.3

O=C(OCCNC(=O)c1ccc2ccccc2n1)c1ccc(F)cc1 on Lethal factor (Bacillus anthracis) (UniProt P15917) gives inhibition = 4.4

###

assay: inhibitors of CD8+ T cell-vesicle binding, pilot screen, LFA-1/ICAM-1 modulator project, MLPCN validation set, flow cytometry (AID 2523); conditions: 2C mouse CD8+ T cells, at 7 µM, stronger effect = lower value; measured here: CD8+/vesicle+ event percentage
RECORDED_ENDPOINT: double positive events (%)
The reply should contain only the number, in %.

Example entries and their recorded answers appear below.
double positive events reported for this molecule C[C@]12CCC(=O)C=C1CC[C@@H]1[C@@H]2C(=O)C[C@]2(C)C(=O)CC[C@@H]12 : 61

double positive events reported for this molecule CCCC[N+]1(C)[C@@H]2CC(OC(=O)[C@H](CO)c3ccccc3)C[C@H]1[C@@H]1O[C@@H]12 (stereo not given in full) : 59.9

double positive events reported for this molecule NCCc1ccc(O)cc1 : 60

double positive events reported for this molecule C[C@@H]1O[C@@H](O[C@H]2C[C@@H](O)[C@]3(CO)[C@H]4[C@H](O)C[C@]5(C)[C@@H](C6=CC(=O)OC6)CC[C@]5(O)[C@@H]4CC[C@]3(O)C2)[C@H](O)[C@H](O)[C@H]1O : 69

Further cases:
double positive events reported for this molecule O=C1CSC2N1CCNC21CCCCC1 (stereo not given) : 64.1

double positive events reported for this molecule COC1=CC(=O)OC(/C=C/c2ccccc2)C1 (stereo not given) : 56.3

double positive events reported for this molecule C[C@H]1CCC[C@H](O)CCCCCc2cc(O)cc(O)c2C(=O)O1 : 52.7

double positive events reported for this molecule CC(C)CCC1(CN2CCCC2=O)C(=O)NC(=O)NC1=O : 58.9

double positive events reported for this molecule O=C1C=Cc2ccccc2C1=O : 43.3

double positive events reported for this molecule CC12CN3CC(C)(CN(C1)C3c1cccnc1)C2=O (stereo not given) : 58

###

target: Lethal factor (Bacillus anthracis) (UniProt P15917); experiment: Lethal factor protease inhibitors, Bacillus anthracis, multiplex microsphere cleavage assay, validation set (AID 588461); details: flow cytometry, at 10 µM, stronger effect = higher value
RECORDED_ENDPOINT: inhibition (%)
The reply should contain only the number, in %.

inhibition reported for this compound CCN(CC)CCOC(=O)C(O)(c1ccccc1)c1ccccc1 : -5.6

inhibition reported for this compound O=C(O)c1ccccc1OCCOc1ccccc1 : 7.2

inhibition reported for this compound CC(C)Oc1ccc2c(=O)c(-c3ccccc3)coc2c1 : 6.8

inhibition reported for this compound CC(C)(C)OC(=O)NCCC(=O)Oc1ccc2ccc(=O)oc2c1 : 0.5

Further cases:
inhibition reported for this compound CCOc1ccc2nc(NC(=O)NC3CCCCC3)sc2c1 : -3.9

inhibition reported for this compound COc1cc(C(=O)CCN2CCC(c3ccccc3)C2)cc(OC)c1OC (stereo unspecified) : 6.6

###

experiment: superoxide lowering in aged yeast cells, pilot screen, validation compound set (AID 2706);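 also: yeast exposed to compound for one week at 30 degrees C before staining; 100% = mean of all compound wells on the same plate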; conditions: S. cerevisiae aging, superoxide DHE fluorescence; at 10 µM; stronger effect = lower value
Quick reference: superoxide response (% of plate) of the listed items.
The reply should contain only the number, in %.

superoxide response (% of plate) reported for this compound COc1cccc(Oc2c(C)oc3cc(OC(=O)N(C)C)ccc3c2=O)c1 : 110

superoxide response (% of plate) reported for this compound Cc1cc(OCc2cc(C(=O)O)oc2C)c2c3c(c(=O)oc2c1)CCCC3 : 90.3

superoxide response (% of plate) reported for this compound NNC(=O)c1ccc(Cl)cc1 : 88.1

superoxide response (% of plate) reported for this compound CN1CC[C@@]23CCCC[C@@H]2[C@@H]1Cc1ccc(O)cc13 : 109

superoxide response (% of plate) reported for this compound CCNC(=O)[C@H]1O[C@@H](n2cnc3c(N)ncnc32)[C@H](O)[C@@H]1O : 111

Further cases:
superoxide response (% of plate) reported for this compound NCCc1ccc(O)cc1 : 94.8
